From: paper PMC8346053

Give measured ∆Tm with 1 mM L-Pro for each item. Keep answers brief.
Target: recombinant HcProRS (Homo sapiens, UniProt P07814)
Construct: SUMO (N, cleaved yes); made in house; host or cells: E. coli Rosetta 2 (DE3) pLysS
Sequence (P07814 1001-1512): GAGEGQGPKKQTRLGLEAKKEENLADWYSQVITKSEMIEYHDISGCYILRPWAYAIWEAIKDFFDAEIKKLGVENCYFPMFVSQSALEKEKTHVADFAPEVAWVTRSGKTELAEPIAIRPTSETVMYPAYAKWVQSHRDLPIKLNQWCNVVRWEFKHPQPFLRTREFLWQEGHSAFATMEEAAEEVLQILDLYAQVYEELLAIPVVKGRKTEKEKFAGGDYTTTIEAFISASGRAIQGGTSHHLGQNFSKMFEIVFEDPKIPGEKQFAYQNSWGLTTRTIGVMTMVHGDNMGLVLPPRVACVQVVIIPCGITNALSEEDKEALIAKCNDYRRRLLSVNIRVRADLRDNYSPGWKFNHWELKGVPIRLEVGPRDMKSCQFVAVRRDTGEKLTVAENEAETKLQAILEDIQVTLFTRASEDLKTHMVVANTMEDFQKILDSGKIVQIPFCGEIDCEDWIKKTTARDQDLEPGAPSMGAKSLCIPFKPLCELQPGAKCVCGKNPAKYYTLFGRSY
Assay: fluorescence-based thermal shift assay (TSA)
Type: binding
Settings: 100 µM compound, 3.45 µM HcProRS; versus HcProRS with 1 mM Pro only

Guide cases for ∆Tm with 1 mM L-Pro, answers given:
| molecule | ∆Tm with 1 mM L-Pro |
| --- | --- |
| NC(=O)c1nccnc1NCc1ccccc1Cl [4h] | +2.27 °C |
| Cc1ccccc1CNc1nccnc1C(N)=O [4d] | +3.13 °C |
| O=C(NCc1ccccc1Cl)c1nccnc1NCc1ccccc1Cl [3b] | +4.72 °C |

For NC(=O)c1nccnc1NCc1ccccc1F [4i] , what is its reported ∆Tm with 1 mM L-Pro?
+0.10 °C
